target.of.assay: T1, full length recombinant human 2N4R tau (amino acids 1-441) (human, UniProt P10636 1-758)
T1 construct: Bought (rPeptide); recombinant, non-phosphorylated; also called recombinant tau
protocol.text: SPR Biacore SCK, IgG on Protein A, tau analyte
measured.parameter: koff
Please state the number and follow it with the unit.

Q: Query: koff; subject: Clone 23 (VH3Vκ2), humanised variant of clone #28, human IgG1 (antibody, V domains shown, also called VH3VK2) VH: QVQLQESGPGLVKPSETLSLTCTVSGFSLNNYDMSWVRQAPGKGLEWIGTVSTTYRRYYASWAKGRFTISKTSSTTVDLQMTSLTAEDTATYFCAASGIWGRGTLVTVSS VL: AQVLTQSPSTLSASVGDRVTITCQSSQRVYSNYLAWYQQKPGQPPKRLIFLASTLESGVPSRFSGSGSGTEFTLTISSLQPDDFATYYCAGTYTGSIWAFGGGTKVEIK
Result: 0.00253 s⁻¹

Q: So what does the record say about koff for Clone 28 (VH4Vκ4), humanised variant of clone #28, human IgG1 (antibody, V domains shown, also called VH4VK4; VH4Vk4) VH: QVQLQESGPGLVKPSETLSLTCTVSGFSLNNYDMSWVRQAPGKGLEWIGTVSTTYRRYYASWAKGRFTISKDTSSTTVDLQMTSLTAEDTATYFCAASGIWGRGTLVTVSS VL: DIQMTQSPSTLSASVGDRVTITCQSSQRVYSNYLAWYQQKPGQPPKRLIFLASTLESGVPSRFSGSGSGTEFTLTISSLQPDDFATYYCAGTYTGSIWAFGGGTKVEIK ?
Result: 0.00234 s⁻¹
